# SYSTEM: Keap1-Nrf2 PPI (Keap1 kelch domain protein, FITC labeled Nrf2 9 peptide) (Homo sapiens, UniProt Q14145)
# Construct: 10 μL 12 nm Keap1 kelch domain protein
# Sequence (Q14145 321-609 limits assumed): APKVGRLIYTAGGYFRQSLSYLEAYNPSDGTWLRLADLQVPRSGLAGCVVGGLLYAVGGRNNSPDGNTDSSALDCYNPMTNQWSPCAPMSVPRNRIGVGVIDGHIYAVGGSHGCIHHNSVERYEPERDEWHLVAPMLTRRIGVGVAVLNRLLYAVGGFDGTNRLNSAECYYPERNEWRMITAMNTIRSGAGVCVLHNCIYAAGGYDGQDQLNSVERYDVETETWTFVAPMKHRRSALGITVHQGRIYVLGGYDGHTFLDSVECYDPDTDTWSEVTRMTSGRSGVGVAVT
# PROTOCOL NOTES: Fluorescence polarization based Keap1-Nrf2 PPI competitive inhibition experiment (FP experiment)
# Assay type: binding
# MEASUREMENT CONTEXT: FP experiment; general formula IV compounds
Entries annotated with measured log10 of IC50
Form field - Quantity: IC50; Unit: µM; Scale: log10

Solved cases below.
SMILES REPRESENTATION	EXPERIMENTAL VALUE
C#CCN(c1ccc(N(CC(=O)O)S(=O)(=O)c2ccc(C(C)C)cc2)c2ccccc12)[C@@H](C)CC(=O)O	-1.10
C#CCN(c1ccc(N(CC(=O)O)S(=O)(=O)c2cccc(OC)c2)c2ccccc12)[C@@H](C)CC(=O)O	-0.89
C#CCN(c1ccc(N(CC(=O)O)S(=O)(=O)c2ccccc2C)c2ccccc12)[C@@H](C)CC(=O)O	-0.77

Per the record, C#CCN(c1ccc(N(CC(=O)O)S(=O)(=O)c2c(C)cc(C)cc2C)c2ccccc12)[C@@H](C)CC(=O)O has log10 of IC50 of -1.82

Per the record, C#CCN(c1ccc(N(CC(=O)O)S(=O)(=O)c2ccc(C)cc2C)c2ccccc12)[C@@H](C)CC(=O)O has log10 of IC50 of -1.57

Per the record, C#CCN(c1ccc(N(CC(=O)O)S(=O)(=O)c2c(C)c(C)cc(C)c2C)c2ccccc12)[C@@H](C)CC(=O)O has log10 of IC50 of -0.82

====

# SYSTEM: Keap1-Nrf2 PPI (Keap1 kelch domain protein, FITC labeled Nrf2 9 peptide) (Homo sapiens)
# Construct: 10 μL 12 nm Keap1 kelch domain protein
# PROTOCOL NOTES: Fluorescence polarization based Keap1-Nrf2 PPI competitive inhibition experiment (FP experiment)
# Assay type: binding
# MEASUREMENT CONTEXT: FP experiment; general formula V / VI compounds
# Method: 1. Keap1-Nrf2 PPI Competitive Inhibition Test Based on Fluorescence Polarization (FP Experiment) The 384-well blackboard model 3676 produced by Corning is used in FP experiment, with a total volume of reaction of 40 μL. […] The inhibition rate is calculated as: inhibition %=[…]/(Pmax−Pmin) wherein Pobs is the polarization value of the compound well, Pmax is the polarization value of the negative control well, and Pmin is the polarization value of the blank well. […]
ASSAY READOUT: log10(IC50) (log10 of the value in nM)
Form field - Quantity: IC50; Unit: nM; Scale: log10

COMPOUND	log10(IC50)
C#CCN(c1ccc(NS(=O)(=O)c2ccc(OC)c(OC)c2)c2ccccc12)[C@@H](C)CC(=O)O [DDO-1210]	1.86
C#CCN(c1ccc(N(CC(=O)O)S(=O)(=O)c2ccc(OC)c(OC)c2)c2ccccc12)[C@@H](C)CC(=O)O [DDO-1211]	1.77
C#CCN(c1ccc(NS(=O)(=O)c2c(C)cc(OC)c(C)c2C)c2ccccc12)[C@@H](C)CC(=O)O [DDO-1218]	1.36
C#CCN(c1ccc(NS(=O)(=O)c2ccc3c(c2)CCO3)c2ccccc12)[C@@H](C)CC(=O)O [DDO-1222]	2.20
C#CCN(c1ccc(N(CC(=O)O)S(=O)(=O)c2ccc(OC)c(Cl)c2)c2ccccc12)[C@@H](C)CC(=O)O [DDO-1215]	1.60
C#CCN(c1ccc(N(CC(=O)O)S(=O)(=O)c2c(C)cc(OC)c(C)c2C)c2ccccc12)[C@@H](C)CC(=O)O [DDO-1219]	0.85
C#CCN(c1ccc(NS(=O)(=O)c2c(C)cc(OC)cc2C)c2ccccc12)[C@@H](C)CC(=O)O [DDO-1220]	1.11
C#CCN(c1ccc(N(CC(=O)O)S(=O)(=O)c2ccc(OC)c(F)c2)c2ccccc12)[C@@H](C)CC(=O)O [DDO-1213]	2.19

Hey, Keap1-Nrf2 PPI (Keap1 kelch domain protein, FITC labeled Nrf2 9 peptide) (Homo sapiens) data for C#CCN(c1ccc(N(CC(=O)O)S(=O)(=O)c2ccc(OC)c(C)c2)c2ccccc12)[C@@H](C)CC(=O)O [DDO-1217] : log10(IC50) came out at 1.57

Hey, Keap1-Nrf2 PPI (Keap1 kelch domain protein, FITC labeled Nrf2 9 peptide) (Homo sapiens) data for C#CCN(c1ccc(NS(=O)(=O)c2ccc(OC)c(Cl)c2)c2ccccc12)[C@@H](C)CC(=O)O [DDO-1214] : log10(IC50) came out at 1.88

====

Entries annotated with measured IC50
# SYSTEM: Keap1-Nrf2 PPI (Keap1 kelch domain protein, FITC labeled Nrf2 9 peptide) (Homo sapiens)
# Construct: 10 μL 12 nm Keap1 kelch domain protein
# PROTOCOL NOTES: Fluorescence polarization based Keap1-Nrf2 PPI competitive inhibition experiment (FP experiment)
# Type: binding
# MEASUREMENT CONTEXT: FP experiment; general formula III compounds; unit inferred
Unit nM implied. Number only.

COMPOUND	UNIT LABEL	EXPERIMENTAL VALUE
C#CCN(c1ccc(NS(=O)(=O)c2ccc(Cl)cc2)c2ccccc12)[C@@H](C)CC(=O)O [DDO-1192]	nM	1700
C#CCN(c1ccc(NS(=O)(=O)c2ccc(OC)cc2)c2ccccc12)[C@@H](C)CC(=O)O [DDO-1180]	nM	95

Per the record, C#CCN(c1ccc(NS(=O)(=O)c2c(C)cc(C)cc2C)c2ccccc12)[C@@H](C)CC(=O)O [DDO-1206] has IC50 of 41

Per the record, C#CCN(c1ccc(NS(=O)(=O)c2ccccc2)c2ccccc12)[C@@H](C)CC(=O)O [DDO-1186] has IC50 of 8000

Per the record, C#CCN(c1ccc(NS(=O)(=O)c2ccc(C)cc2)c2ccccc12)[C@@H](C)CC(=O)O [DDO-1194] has IC50 of 480

====

# SYSTEM: Keap1-Nrf2 PPI (Keap1 kelch domain protein, FITC labeled Nrf2 9 peptide) (Homo sapiens, UniProt Q14145)
# Construct: 10 μL 12 nm Keap1 kelch domain protein
# PROTOCOL NOTES: Fluorescence polarization based Keap1-Nrf2 PPI competitive inhibition experiment (FP experiment)
# Type: binding
# MEASUREMENT CONTEXT: FP experiment; general formula I / II compounds
# Protocol: 1. Keap1-Nrf2 PPI Competitive Inhibition Test Based on Fluorescence Polarization (FP Experiment) The 384-well blackboard model 3676 produced by Corning is used in FP experiment, with a total volume of reaction of 40 μL. […] The inhibition rate is calculated as: inhibition %=[…]/(Pmax−Pmin) wherein Pobs is the polarization value of the compound well, Pmax is the polarization value of the negative control well, and Pmin is the polarization value of the blank well. […]
Entries annotated with measured pIC50
Reminder that pIC50 is minus the log10 of a molar concentration.

Solved cases below.
COMPOUND	pIC50
COc1ccc(S(=O)(=O)N(CC(=O)O)c2ccc(N(Cc3ccc(F)cc3)[C@@H](C)CC(=O)O)c3ccccc23)cc1 [DDO-1167]	6.75
COc1ccc(S(=O)(=O)N(CC(=O)O)c2ccc(N(Cc3ccccc3C)[C@@H](C)CC(=O)O)c3ccccc23)cc1 [DDO-1171]	6.95
COc1ccc(S(=O)(=O)N(CC(=O)O)c2ccc(N(Cc3ccc(Cl)cc3)[C@@H](C)CC(=O)O)c3ccccc23)cc1 [DDO-1165]	6.57
COc1ccc(S(=O)(=O)Nc2ccc(N(Cc3ccc(Cl)cc3)[C@@H](C)CC(=O)O)c3ccccc23)cc1 [DDO-1164]	5.39

Per the record, COc1ccc(S(=O)(=O)N(CC(=O)O)c2ccc(N(Cc3cccc(C)c3)[C@@H](C)CC(=O)O)c3ccccc23)cc1 [DDO-1169] has pIC50 of 6.69

Per the record, COc1ccc(S(=O)(=O)Nc2ccc(N(Cc3cccc(C)c3)[C@@H](C)CC(=O)O)c3ccccc23)cc1 [DDO-1168] has pIC50 of 5.78

Per the record, COc1ccc(S(=O)(=O)N(CC(=O)O)c2ccc(N(Cc3ccccc3)[C@@H](C)CC(=O)O)c3ccccc23)cc1 [DDO-1161] has pIC50 of 6.97

====

# SYSTEM: Keap1-Nrf2 PPI (Keap1 kelch domain protein, FITC labeled Nrf2 9 peptide) (Homo sapiens, UniProt Q14145)
# Construct: 10 μL 12 nm Keap1 kelch domain protein
# PROTOCOL NOTES: Fluorescence polarization based Keap1-Nrf2 PPI competitive inhibition experiment (FP experiment)
# Type: binding
# MEASUREMENT CONTEXT: FP experiment; general formula I / II compounds
Response field label takes 1 when IC50 is strictly below 200 nM and 0 in all other cases.

SMILES REPRESENTATION	CAT
COc1ccc(S(=O)(=O)Nc2ccc(N(Cc3ccc(C)cc3)[C@@H](C)CC(=O)O)c3ccccc23)cc1	0
COc1ccc(S(=O)(=O)N(CC(=O)O)c2ccc(N(Cc3cccc(Cl)c3)[C@@H](C)CC(=O)O)c3ccccc23)cc1	1

(Q) Is IC50 strictly under 200 nM for the entry COc1ccc(S(=O)(=O)Nc2ccc(N(Cc3cccc(F)c3)[C@@H](C)CC(=O)O)c3ccccc23)cc1 ?
(A) 0

(Q) Is IC50 strictly under 200 nM for the entry COc1ccc(S(=O)(=O)Nc2ccc(N(Cc3ccccc3C)[C@@H](C)CC(=O)O)c3ccccc23)cc1 ?
(A) 0

(Q) Is IC50 strictly under 200 nM for the entry COc1ccc(S(=O)(=O)Nc2ccc(N(Cc3ccccc3)[C@@H](C)CC(=O)O)c3ccccc23)cc1 ?
(A) 0

(Q) Is IC50 strictly under 200 nM for the entry COc1ccc(S(=O)(=O)Nc2ccc(N(Cc3ccccc3Cl)[C@@H](C)CC(=O)O)c3ccccc23)cc1 ?
(A) 0

(Q) Is IC50 strictly under 200 nM for the entry COc1ccc(S(=O)(=O)N(CC(=O)O)c2ccc(N(Cc3ccc(C)cc3)[C@@H](C)CC(=O)O)c3ccccc23)cc1 ?
(A) 1

(Q) Is IC50 strictly under 200 nM for the entry COc1ccc(S(=O)(=O)N(CC(=O)O)c2ccc(N(Cc3ccccc3Cl)[C@@H](C)CC(=O)O)c3ccccc23)cc1 ?
(A) 1

(Q) Is IC50 strictly under 200 nM for the entry COc1ccc(S(=O)(=O)Nc2ccc(N(Cc3ccccc3F)[C@@H](C)CC(=O)O)c3ccccc23)cc1 ?
(A) 0

(Q) Is IC50 strictly under 200 nM for the entry COc1ccc(S(=O)(=O)N(CC(=O)O)c2ccc(N(Cc3cccc(F)c3)[C@@H](C)CC(=O)O)c3ccccc23)cc1 ?
(A) 1

(Q) Is IC50 strictly under 200 nM for the entry COc1ccc(S(=O)(=O)Nc2ccc(N(Cc3ccc(F)cc3)[C@@H](C)CC(=O)O)c3ccccc23)cc1 ?
(A) 0

(Q) Is IC50 strictly under 200 nM for the entry COc1ccc(S(=O)(=O)N(CC(=O)O)c2ccc(N(Cc3ccccc3F)[C@@H](C)CC(=O)O)c3ccccc23)cc1 ?
(A) 1

(Q) Is IC50 strictly under 200 nM for the entry COc1ccc(S(=O)(=O)Nc2ccc(N(Cc3cccc(Cl)c3)[C@@H](C)CC(=O)O)c3ccccc23)cc1 ?
(A) 0
